molecular target: Glucose-dependent insulinotropic receptor (Homo sapiens, UniProt Q8TDV5); assay: Agonist activity at human GPR119 by HTRF cAMP assay; type: functional
Sequence (Q8TDV5 whole entry): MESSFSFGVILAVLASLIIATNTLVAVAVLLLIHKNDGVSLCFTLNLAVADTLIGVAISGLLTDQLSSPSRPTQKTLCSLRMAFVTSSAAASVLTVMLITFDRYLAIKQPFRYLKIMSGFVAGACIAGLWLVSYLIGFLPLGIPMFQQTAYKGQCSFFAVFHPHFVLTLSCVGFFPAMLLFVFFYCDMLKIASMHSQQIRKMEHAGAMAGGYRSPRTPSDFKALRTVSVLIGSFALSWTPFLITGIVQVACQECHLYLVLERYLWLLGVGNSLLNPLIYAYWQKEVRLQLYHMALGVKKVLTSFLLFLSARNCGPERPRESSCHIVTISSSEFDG
OBSERVATION_TYPE: EC50

Exercise: // query EC50 value for entry CC(C)(C)OC(=O)N1CCC(OC2CCC(Oc3ccc(S(C)(=O)=O)cc3)CC2)CC1 (mixture of isomers)
Solution: > 200 nM

Exercise: What value of EC50 has been recorded for this entry: `C[C@H](CF)OC(=O)N1CCC(O[C@H]2CC[C@H](Oc3cnc(S(C)(=O)=O)cn3)CC2)CC1`
Solution: 36.8 nM

Exercise: Look up EC50 for this compound: `C[C@H](OC(=O)N1CCC(O[C@H]2CC[C@H](Oc3cnc(S(C)(=O)=O)cn3)CC2)CC1)C(F)(F)F`
Solution: 4.8 nM
